For each record, write down the corresponding viability, T/C.
# Tested on: 327498-153-R-J2-PDC complex spheroid growth, % test/control
# procedureText: Anticancer human tumor 327498-153-R-J2-PDC patient-derived uterine carcinosarcoma cell line growth inhibition [Asc]
# experimentalConditions: second compound 1 µM; first compound 0.00949 µM; active compounds read low
All answers are understood in %, so give the number only.

Would you kindly share the measured viability, T/C for Cc1nc(N2CCC3(CC2)COC(C)C3N)c(CO)nc1Sc1ccnc(N)c1Cl (stereo unspecified) + CNC(C)C(=O)NC1CN(S(=O)(=O)c2cccc(S(=O)(=O)N3CCC4CCC(C(=O)NC(c5ccccc5)c5ccccc5)N4C(=O)C(NC(=O)C(C)NC)C3)c2)CCC2CCC(C(=O)NC(c3ccccc3)c3ccccc3)N2C1=O ?
94.3

Would you kindly share the measured viability, T/C for NC(=O)C(=Cn1cnc(-c2cc(C(F)(F)F)cc(C(F)(F)F)c2)n1)c1cncnc1 + Cc1c(S(C)(=O)=O)c(-c2cc(F)cc(N3CCN(c4ccc(NS(=O)(=O)c5ccc(NC(CCN6CCC(C(=O)OCCCP(=O)(O)O)CC6)CSc6ccccc6)c(S(=O)(=O)C(F)(F)F)c5)cc4)CC3)c2)c(-c2ccc(Cl)cc2)n1C(C)C ?
87.1

Would you kindly share the measured viability, T/C for Cc1nc(N2CCC3(CC2)COC(C)C3N)c(CO)nc1Sc1ccnc(N)c1Cl (stereo unspecified) + Cc1c(S(C)(=O)=O)c(-c2cc(F)cc(N3CCN(c4ccc(NS(=O)(=O)c5ccc(NC(CCN6CCC(C(=O)OCCCP(=O)(O)O)CC6)CSc6ccccc6)c(S(=O)(=O)C(F)(F)F)c5)cc4)CC3)c2)c(-c2ccc(Cl)cc2)n1C(C)C ?
95.3

Would you kindly share the measured viability, T/C for CCN1C(C(=O)NC23CCC(C(=O)O)(CC2)CC3)C(c2cccc(Cl)c2F)C2(C(=O)Nc3cc(Cl)ccc32)C12CCCCC2 (stereo unspecified) + Cc1c(S(C)(=O)=O)c(-c2cc(F)cc(N3CCN(c4ccc(NS(=O)(=O)c5ccc(NC(CCN6CCC(C(=O)OCCCP(=O)(O)O)CC6)CSc6ccccc6)c(S(=O)(=O)C(F)(F)F)c5)cc4)CC3)c2)c(-c2ccc(Cl)cc2)n1C(C)C ?
91.4

Would you kindly share the measured viability, T/C for NC(=O)C(=Cn1cnc(-c2cc(C(F)(F)F)cc(C(F)(F)F)c2)n1)c1cncnc1 + CNC(C)C(=O)NC1CN(S(=O)(=O)c2cccc(S(=O)(=O)N3CCC4CCC(C(=O)NC(c5ccccc5)c5ccccc5)N4C(=O)C(NC(=O)C(C)NC)C3)c2)CCC2CCC(C(=O)NC(c3ccccc3)c3ccccc3)N2C1=O ?
82.2

Would you kindly share the measured viability, T/C for CCN1C(C(=O)NC23CCC(C(=O)O)(CC2)CC3)C(c2cccc(Cl)c2F)C2(C(=O)Nc3cc(Cl)ccc32)C12CCCCC2 (stereo unspecified) + CNC(C)C(=O)NC1CN(S(=O)(=O)c2cccc(S(=O)(=O)N3CCC4CCC(C(=O)NC(c5ccccc5)c5ccccc5)N4C(=O)C(NC(=O)C(C)NC)C3)c2)CCC2CCC(C(=O)NC(c3ccccc3)c3ccccc3)N2C1=O ?
100

###

For each record, write down the corresponding viability, T/C.
# Test system: 327498-153-R-J2-PDC complex spheroid growth, % test/control
# procedureText: Anticancer human tumor 327498-153-R-J2-PDC cell line growth inhibition [Asc];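 note: spheroids exposed to compound for 7 days after 3 days of growth; 100% = DMSO vehicle control wells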
# experimentalConditions: second compound 0.03 µM; first compound 0.1 µM; active compounds read low
All answers are understood in %, so give the number only.

Would you kindly share the measured viability, T/C for CCN1CCN(Cc2ccc(Nc3ncc(F)c(-c4cc(F)c5nc(C)n(C(C)C)c5c4)n3)nc2)CC1 + CCN1C(C(=O)NC23CCC(C(=O)O)(CC2)CC3)C(c2cccc(Cl)c2F)C2(C(=O)Nc3cc(Cl)ccc32)C12CCCCC2 ?
52.4

Would you kindly share the measured viability, T/C for O=C(c1ccc(F)c(F)c1Nc1ccc(I)cc1F)N1CC(O)([C@@H]2CCCCN2)C1 + CCN1C(C(=O)NC23CCC(C(=O)O)(CC2)CC3)C(c2cccc(Cl)c2F)C2(C(=O)Nc3cc(Cl)ccc32)C12CCCCC2 ?
64.5

Would you kindly share the measured viability, T/C for Cn1ncnc1[C@H]1c2n[nH]c(=O)c3cc(F)cc(c23)N[C@@H]1c1ccc(F)cc1 + CCN1C(C(=O)NC23CCC(C(=O)O)(CC2)CC3)C(c2cccc(Cl)c2F)C2(C(=O)Nc3cc(Cl)ccc32)C12CCCCC2 ?
6.28

Would you kindly share the measured viability, T/C for CNC(C)C(=O)NC1CN(S(=O)(=O)c2cccc(S(=O)(=O)N3CCC4CCC(C(=O)NC(c5ccccc5)c5ccccc5)N4C(=O)C(NC(=O)C(C)NC)C3)c2)CCC2CCC(C(=O)NC(c3ccccc3)c3ccccc3)N2C1=O (stereo not given) + CCN1C(C(=O)NC23CCC(C(=O)O)(CC2)CC3)C(c2cccc(Cl)c2F)C2(C(=O)Nc3cc(Cl)ccc32)C12CCCCC2 ?
91.7

Would you kindly share the measured viability, T/C for C=C(F)C(=O)N1CCN(c2nc(OCC3CCCN3C)nc3c2CCN(c2cccc4cccc(Cl)c24)C3)CC1CC#N (stereo not given) + CCN1C(C(=O)NC23CCC(C(=O)O)(CC2)CC3)C(c2cccc(Cl)c2F)C2(C(=O)Nc3cc(Cl)ccc32)C12CCCCC2 ?
55.3

Would you kindly share the measured viability, T/C for COc1c(OCCCN2CCOCC2)ccc2c3n(c(=NC(=O)c4cnc(N)nc4)nc12)CCN3 + CCN1C(C(=O)NC23CCC(C(=O)O)(CC2)CC3)C(c2cccc(Cl)c2F)C2(C(=O)Nc3cc(Cl)ccc32)C12CCCCC2 ?
41.8

Would you kindly share the measured viability, T/C for O=C(c1cc(Cc2n[nH]c(=O)c3ccccc23)ccc1F)N1CCN(C(=O)C2CC2)CC1 + CCN1C(C(=O)NC23CCC(C(=O)O)(CC2)CC3)C(c2cccc(Cl)c2F)C2(C(=O)Nc3cc(Cl)ccc32)C12CCCCC2 ?
83.6

Would you kindly share the measured viability, T/C for C=CC(=O)N1CCN(c2nc(=O)n(-c3c(C)ccnc3C(C)C)c3nc(-c4c(O)cccc4F)c(F)cc23)C(C)C1 (stereo not given) + CCN1C(C(=O)NC23CCC(C(=O)O)(CC2)CC3)C(c2cccc(Cl)c2F)C2(C(=O)Nc3cc(Cl)ccc32)C12CCCCC2 ?
66.8

Would you kindly share the measured viability, T/C for NC1CCC(NC2CC2c2ccccc2)CC1 (stereo not given) + CCN1C(C(=O)NC23CCC(C(=O)O)(CC2)CC3)C(c2cccc(Cl)c2F)C2(C(=O)Nc3cc(Cl)ccc32)C12CCCCC2 ?
97.3

Would you kindly share the measured viability, T/C for C#Cc1c(F)ccc2cc(O)cc(-c3ncc4c(N5CC6CCC(C5)N6)nc(OCC56CCCN5CC(F)C6)nc4c3F)c12 (stereo not given) + CCN1C(C(=O)NC23CCC(C(=O)O)(CC2)CC3)C(c2cccc(Cl)c2F)C2(C(=O)Nc3cc(Cl)ccc32)C12CCCCC2 ?
94.4
